molecular target: HLA-A*0201 (human); assay: competitive inhibition of 125I-labelled standard peptide binding to purified HLA
Consider the following binders and their measured IC50 readings.

Binder: LVCNGVLQGV (modifications not checked) [Peptide 1418.55, … (PSA.213.V10)]
IC50: 10 nM

// returns reported IC50 for input FLTLSVTWIGV (modifications not checked) [Peptide 63.0186, … (PSA.3.V11)]
6.8 nM
